Where do these numbers come from? They come from PubChem BioAssay (NCI).

System: SK-MEL-5 melanoma
measurementDescription: NCI tumour cell line growth inhibition, 48 h
measurementType: TGI

INSERT INTO assay_data (molecule, targetofassay, measurementtype, reportedresult) VALUES
  ('COC(=O)C#CCC1CCCC1C1SCCS1 (stereo unspecified)', 'SK-MEL-5 melanoma', 'TGI', '> 100 µM'),
  ('CCCCCn1c(=O)c2c(=O)[nH][nH]c2c2ccccc21', 'SK-MEL-5 melanoma', 'TGI', '> 100 µM'),
  ('COc1cc(OC)cc(-n2c(N)c(-c3nc4ccccc4n3C)c3ccc([N+](=O)[O-])cc3c2=O)c1', 'SK-MEL-5 melanoma', 'TGI', '> 100 µM'),
  ('Cc1nn(C(=O)c2ccncc2)c2c1C(c1cccc([N+](=O)[O-])c1)SC(N)=N2 (stereo unspecified)', 'SK-MEL-5 melanoma', 'TGI', '> 10 µM');

-- ask Suppose we examine the molecule C[C@@H]1CC[C@@H](C)[C@](C)(CCc2ccoc2)C/C=C\C=C/1C(=O)O ; what TGI value has been reported?
-- reply > 50 µM

-- ask Which value of TGI has been reported for COc1cc(/C=C\c2ccncc2)cc(OC)c1OC in the records?
-- reply > 100 µM
